test system: human neuroblastoma IMR32 cells (somatostatin receptor overexpression); assay: MTT cytotoxicity assay, IMR-32 cells; conditions: read-out: Cytotoxicity IC50, IMR-32 Cells; 3 days incubation, MTT assay
Bridge positions count the residues as written; N and C are the ends. Square brackets hold non-standard residues; d marks the D form. Peptide text beside a SMILES is read from it. * marks the point of attachment. X1 = COc1ccc(/C=C\c2cc(OC)c(OC)c(OC)c2)cc1OC(=O)*; Gly(N-2-aminoethyl) = NCCNCC(=O)O; Nle = CCCC[C@H](N)C(=O)O
assay readout: IC50 (nM)
Note: unit nM is implicit; provide only the numeric part.

q: human neuroblastoma IMR32 cells (somatostatin receptor overexpression) / IC50 / CCCC[C@H](NC(=O)[C@@H](CO)NC(=O)CN(CCN)C(=O)Oc1cc(/C=C\c2cc(OC)c(OC)c(OC)c2)ccc1OC)C(=O)N[C@H](Cc1ccc(O)cc1)C(=O)N[C@H](CO)C(=O)N[C@H]1CSSC[C@@H](C(=O)N[C@H](C(N)=O)[C@@H](C)O)NC(=O)[C@H]([C@@H](C)O)NC(=O)[C@H](CCCCN)NC(=O)[C@@H](Cc2c[nH]c3ccccc23)NC(=O)[C@H](Cc2ccccc2)NC1=O [Compound 6] (X1-[Gly(N-2-aminoethyl)][dS][Nle][dY][dS]CF[dW]KTCT-NH2; disulfide 6-11) : value?
a: 2.79

// provenance: patent US7771727B2
